Experiment: chemical genetic growth profiling, strain panel (AID 1159580);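 further: tested at 20 µM; growth read once vehicle control cultures reached saturation at 30 °C; 1 = growth at the plate median or of vehicle wells; lower values mean less growth of the strain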
Details: S. cerevisiae deletion strains, growth OD, locus YKL203C, strain TOR2
In all, about 5,500 compounds went through this assay and about 2,000 (36%) were called active. Not shown: some 18% with an inconclusive outcome. No stated cut-off is given here; in the data, active means normalized growth mostly below about 0.91 (no sharp cut-off); inconclusive means no clear call, values can overlap the other calls; inactive means mostly above about 0.92. Some of the results follow.
Classes used: active, inactive

[
  {
    "molecule": "O=C(N/C=C/c1ccsc1)Nc1cc(C(F)(F)F)cc(C(F)(F)F)c1",
    "class": "active"
  },
  {
    "molecule": "O=C(CSc1nnnn1-c1ccccc1)c1ccccc1",
    "class": "active"
  },
  {
    "molecule": "O=C1C(=O)N(CN2CCc3c([nH]c4ccccc34)C2C(F)(F)F)c2ccc(F)cc21 (stereo unspecified)",
    "class": "inactive"
  },
  {
    "molecule": "S=C(Nc1ccc(Cl)cc1Cl)N(c1cccc(Cl)c1)c1nc2ccccc2s1",
    "class": "inactive"
  },
  {
    "molecule": "CC(=O)CSc1nnc(-c2ccc(C(C)(C)C)cc2)n1-c1ccc(Cl)cc1",
    "class": "inactive"
  },
  {
    "molecule": "Cc1ccc2nc(-c3ccc(Cl)cc3)cn2c1",
    "class": "inactive"
  }
]

====

Assay: chemical genetic growth profiling, strain panel (AID 1159580);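 further: tested at 20 µM; growth read once vehicle control cultures reached saturation at 30 °C; 1 = growth at the plate median or of vehicle wells; lower values mean less growth of the strain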
Conditions: S. cerevisiae deletion strains, growth OD, locus YML070W, strain DAK1, hits give low values
Screen size: about 5,500 compounds; about 2,000 (36%) were called active. Not shown: some 18% with an inconclusive outcome. This is one part of the list.

[
  {
    "sample smiles": "O=C(CSc1nnnn1-c1ccccc1)c1ccccc1",
    "normalized growth": 0.608
  },
  {
    "sample smiles": "Cc1ccc2nc(-c3ccc(Cl)cc3)cn2c1",
    "normalized growth": 0.91
  },
  {
    "sample smiles": "Cc1ccc(-c2csc(-c3cccnc3)n2)c(C)c1",
    "normalized growth": 0.891
  }
]

====

Assay: chemical genetic growth profiling, strain panel (AID 1159580);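 further: tested at 20 µM; growth read once vehicle control cultures reached saturation at 30 °C; 1 = growth at the plate median or of vehicle wells; lower values mean less growth of the strain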
Conditions: S. cerevisiae deletion strains, growth OD, locus YNL175C, strain NOP13, hits give low values
The campaign covered roughly 5,500 compounds. About 2,000 (36%) were called active. Roughly 18% stayed inconclusive and do not appear here. The list shows a part of the results.
Reported values of normalized growth for individual entries

[
  {
    "compound": "CNC(=O)OCC[N+](C)(C)C",
    "normalized growth": 0.973
  },
  {
    "compound": "c1ccc2sc(C3(N4CCCCC4)CCCCC3)cc2c1",
    "normalized growth": 1.03
  },
  {
    "compound": "C=CCN1CCc2cc(O)c(O)cc2C(c2ccccc2)C1 (centres undefined)",
    "normalized growth": 1.02
  },
  {
    "compound": "C=Cc1c2[nH]c(c1C)Cc1[nH]c(c(C)c1C=C)C=C1N=C(C=c3[nH]c(c(C)c3CCC(=O)O)=C2)C(CCC(=O)O)=C1C",
    "normalized growth": 0.993
  },
  {
    "compound": "CC(C[N+](C)(C)C)OC(N)=O (centres undefined)",
    "normalized growth": 0.997
  },
  {
    "compound": "CN1CCc2cc(Cl)c(O)cc2[C@@H](c2ccccc2)C1",
    "normalized growth": 1.01
  },
  {
    "compound": "CN1CCc2cc(O)c(O)cc2C(c2ccccc2)C1 (centres undefined)",
    "normalized growth": 1.01
  },
  {
    "compound": "O=C(O)C1=CCCN(CCON=C(c2ccccc2)c2ccccc2)C1",
    "normalized growth": 0.987
  },
  {
    "compound": "CC(C)(C)NC[C@H](O)COc1nsnc1N1CCOCC1",
    "normalized growth": 0.997
  },
  {
    "compound": "CN(N=O)c1cc(O)ccc1O",
    "normalized growth": 0.983
  },
  {
    "compound": "C[N+](C)(C)CCOC(=O)CCC(=O)OCC[N+](C)(C)C",
    "normalized growth": 1.01
  },
  {
    "compound": "C[N+](C)(C)CCOC(=O)CBr",
    "normalized growth": 1.02
  },
  {
    "compound": "COCc1nc2c([nH]1)c(=O)n(C)c(=O)n2CC(C)C",
    "normalized growth": 0.999
  },
  {
    "compound": "NCCSSCCN",
    "normalized growth": 1
  }
]

FYI, the data here is from PubChem BioAssay AID1159580.
